Provenance of the data: patent US12509437B2

# method: LogP by HPLC on reversed phase columns (EEC directive 79/831 Annex V.A8)
# Type: physicochemical
# assay.setup: method [a]
# Protocol: [table] If more than one Log P value is available within the same method, all the values are given and separated by “+”. Calibration was done with straight-chain alkan2-ones (with 3 to 16 carbon atoms) with known Log P values (measurement of Log P values using retention times with linear interpolation between successive alkanones). Lambda-max-values were determined using UV-spectra from 200 nm to 400 nm and the peak values of the chromatographic signals.
Each record here notes measured LogP.

compound	LogP
Cc1c(C(=O)NC(C(=O)OC(C)C)C2CC2)sc(Cl)c1Cl (stereo not shown)	4.23^[a]
Cc1c(C(=O)NCC(=O)Sc2ccccc2)sc(Br)c1Br	4.10^[a]
COC(=O)CC(C)NC(=O)c1sc(Br)c(Br)c1C (stereo not shown)	3.14^[a]

Lab note: measured LogP of Cc1c(C(=O)NC(C(=O)OC2CCC2)C2CC2)sc(Cl)c1Cl (stereo not shown) was 4.44^[a]

###

# method: LogP by HPLC on reversed phase columns (EEC directive 79/831 Annex V.A8)
# Type: physicochemical
# assay.setup: method [a]
reported.endpoint: LogP

Look over these answered cases.
compound	LogP
COC(=O)C(CCC(N)=O)NC(=O)c1sc(Br)c(Br)c1C (centres unmarked)	2.13^[a]
CCOC(=O)C(CC1CC1)NC(=O)c1sc(Br)c(Br)c1C (centres unmarked)	4.30^[a]
CNC(=O)C1(NC(=O)c2sc(Br)c(Br)c2C)CC1	2.21^[a]
Cc1c(C(=O)NC2(C(=O)OC(C)C)CCC2)sc(Cl)c1Cl	4.05^[a]

Lab note: measured LogP of Cc1c(C(=O)NC(CCC(N)=O)C(=O)O)sc(Cl)c1Cl (centres unmarked) was 1.70^[a]

###

# Test system: Uromyces appendiculatus
# method: In vivo preventive test on Uromyces appendiculatus (bean rust)
# assay.setup: 240 h, 500 ppm of active ingredient, sprayed 72 hours before inoculation, evaluated 10 days after inoculation, read-out: efficacy
Each record here notes measured pest or weed control at 500 ppm.

Lab note: measured pest or weed control at 500 ppm of CCOC(=O)C(COC)NC(=O)c1sc(Cl)c(Cl)c1C (stereo not shown) was 90 to 100%

Lab note: measured pest or weed control at 500 ppm of `COC(=O)C1(NC(=O)c2sc(Br)c(Br)c2C)CSC1` was 90 to 100%

Lab note: measured pest or weed control at 500 ppm of CCOC(=O)C(CC(N)=O)NC(=O)c1sc(Cl)c(Cl)c1C (stereo not shown) was 90 to 100%

###

# method: LogP by HPLC on reversed phase columns (EEC directive 79/831 Annex V.A8)
# Type: physicochemical
# assay.setup: reversed phase HPLC columns; preparation examples; method not indicated; read-out: Log P
reported.endpoint: chromatographic logP

Look over these answered cases.
compound	chromatographic logP
CCOC(=O)C1(NC(=O)CNC(=O)c2sc(Br)c(Br)c2C)CC1	2.55
CCOC(=O)[C@@H](NC(=S)c1sc(Br)c(Br)c1C)C(C)C	5.22

P. Cc1c(C(=O)NC2(C(=O)O)CC2)sc(Cl)c1Cl
Q. COC(=O)C(NC(=O)c1sc(Cl)c(Cl)c1C)C1CC1 (stereo not drawn)
QUERY: Which is greater in chromatographic logP, the first item P or the second item Q ? Please respond with the label that marks your chosen entry.
RESULT: Q
(Q: 3.31, P: 2.17)
